Give measured pIC50 for each item. Keep answers brief.
Quick note: pIC50 values are minus log10 of concentrations in mol/L.

Test item COc1c(Cc2cccc(O)c2O)c(O)cc2c1C(=O)CC(c1ccccc1)O2 (centres unmarked) [Klainetin A, klainetin A] ; CDK2 (Homo sapiens, UniProt P24941); reported pIC50 was 4.67

Case COc1cc(O)c(Cc2cccc(O)c2O)c(O)c1C(=O)/C=C/c1ccccc1 [Klainetin B, klainetin B] , CDK2 (Homo sapiens, UniProt P24941), pIC50 recorded as 5.22

----------
# TARGET_ENTITY: KDR (Homo sapiens, UniProt P35968)
# Sequence (P35968 20-1356, species assumed): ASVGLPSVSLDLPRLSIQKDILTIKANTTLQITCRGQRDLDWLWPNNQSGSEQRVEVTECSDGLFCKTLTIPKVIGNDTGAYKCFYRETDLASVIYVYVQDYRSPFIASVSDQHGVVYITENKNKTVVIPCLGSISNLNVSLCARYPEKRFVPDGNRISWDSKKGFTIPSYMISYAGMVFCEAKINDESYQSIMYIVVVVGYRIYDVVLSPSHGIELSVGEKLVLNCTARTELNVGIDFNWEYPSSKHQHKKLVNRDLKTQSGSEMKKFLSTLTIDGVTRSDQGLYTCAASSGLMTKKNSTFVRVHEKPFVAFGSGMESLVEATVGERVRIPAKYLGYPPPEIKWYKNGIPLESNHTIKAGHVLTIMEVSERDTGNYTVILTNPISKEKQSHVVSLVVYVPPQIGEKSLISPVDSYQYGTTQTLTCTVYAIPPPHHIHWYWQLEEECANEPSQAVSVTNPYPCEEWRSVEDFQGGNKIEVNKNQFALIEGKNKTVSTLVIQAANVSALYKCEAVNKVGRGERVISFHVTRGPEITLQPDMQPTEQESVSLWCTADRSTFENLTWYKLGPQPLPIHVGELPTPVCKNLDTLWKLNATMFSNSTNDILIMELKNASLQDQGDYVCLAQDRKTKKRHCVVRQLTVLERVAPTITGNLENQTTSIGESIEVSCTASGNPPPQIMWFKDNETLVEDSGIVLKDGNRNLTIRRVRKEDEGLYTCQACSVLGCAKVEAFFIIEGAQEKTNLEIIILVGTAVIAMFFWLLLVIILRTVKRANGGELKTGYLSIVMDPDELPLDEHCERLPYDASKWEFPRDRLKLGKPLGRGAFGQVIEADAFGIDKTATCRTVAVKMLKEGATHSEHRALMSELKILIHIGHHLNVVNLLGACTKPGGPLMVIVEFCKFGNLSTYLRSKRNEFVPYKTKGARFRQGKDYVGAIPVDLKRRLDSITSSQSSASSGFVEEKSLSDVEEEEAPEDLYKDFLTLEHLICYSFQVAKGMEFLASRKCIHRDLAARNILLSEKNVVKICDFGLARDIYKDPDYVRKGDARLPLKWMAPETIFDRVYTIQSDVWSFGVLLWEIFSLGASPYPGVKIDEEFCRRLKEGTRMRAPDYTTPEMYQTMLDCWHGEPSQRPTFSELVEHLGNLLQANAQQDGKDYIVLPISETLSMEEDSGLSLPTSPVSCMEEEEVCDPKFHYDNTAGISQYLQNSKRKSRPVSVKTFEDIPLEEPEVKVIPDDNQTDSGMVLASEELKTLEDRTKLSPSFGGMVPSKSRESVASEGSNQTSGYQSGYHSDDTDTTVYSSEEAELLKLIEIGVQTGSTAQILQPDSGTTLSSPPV
# ASSAY_OVERVIEW: KDR kinase inhibition, phosphorylation of PLCγ1 peptide substrate
# Type: biochemical
# COND: purified enzyme, 5 μM ATP, room temperature 1 h
ASSAY_ENDPOINT: IC50 (µM)
Note: unit µM is implicit; provide only the numeric part.

Lookup result for COc1c(Cc2cccc(O)c2O)c(O)cc2c1C(=O)CC(c1ccccc1)O2 (stereo not shown) ; measured IC50: 6.96

Data credit: patent US6579903B2
